- Tested on: biotinyl-Val-oxazolone
- experiment_summary: self-aminoacylation, catalytic enhancement (BVO) (fold over background); higher = more active; k-Seq, kA / k0A0; sequences stand for … in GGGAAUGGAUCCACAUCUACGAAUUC…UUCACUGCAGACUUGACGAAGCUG
Fewer inactive variants are shown than the library holds.

record_sequence: AGUACCCUGGUGAUCGAGUGA [Fam2.1 aminoacylation ribozyme variant]
self-aminoacylation: 2.92
--
record_sequence: AUUCACCAAGGUCAUCGGGUA [Fam2.2 aminoacylation ribozyme variant]
self-aminoacylation: 3.04
--
record_sequence: CCACACUUCCAGCAAUCGGUG [Fam1B.1 aminoacylation ribozyme variant]
self-aminoacylation: 3.05
--
record_sequence: AUUACCCUGGUCAUCGAGUAC [Fam2.1 aminoacylation ribozyme variant]
self-aminoacylation: 3.03

* * *

- Tested on: biotinyl-Val-oxazolone
- experiment_summary: self-aminoacylation, catalytic enhancement (BVO) (fold over background); higher = more active; k-Seq, kA / k0A0; sequences stand for … in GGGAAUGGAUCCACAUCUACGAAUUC…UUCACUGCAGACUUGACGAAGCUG
Variants at the floor of the assay were thinned out.
Threshold check on self-aminoacylation: at or above 2 gives fulfilled, strictly below gives not fulfilled.

record_sequence: AUUACCCAGGUCAGCGAGUGA [Fam2.1 aminoacylation ribozyme variant]
answer_label: fulfilled

record_sequence: AAGUUUGCUAAAAGUCGCAAA [Fam3.1 aminoacylation ribozyme variant]
answer_label: not fulfilled

record_sequence: AAGUAUGAUAAUAGUCGCAAG [Fam3.1 aminoacylation ribozyme variant]
answer_label: not fulfilled

record_sequence: UCACACUUCAAGCCAUCGGUC [Fam1B.1 aminoacylation ribozyme variant]
answer_label: not fulfilled

record_sequence: UUUACCCGGGUCAUCGAGUGA [Fam2.1 aminoacylation ribozyme variant]
answer_label: fulfilled

record_sequence: AUUACGCUGGUCAUCGUGUGA [Fam2.1 aminoacylation ribozyme variant]
answer_label: not fulfilled

record_sequence: AUUCUCCUGGGUCAUCGGGUG [Fam2.2 aminoacylation ribozyme variant]
answer_label: fulfilled

record_sequence: AUUCACCUAGUUGAUCGGGUG [Fam2.2 aminoacylation ribozyme variant]
answer_label: fulfilled

record_sequence: CUACUUCAAACAUUCGGUUUG [Fam1A.1 aminoacylation ribozyme variant]
answer_label: not fulfilled

record_sequence: CUACUUCAAAAAAUCGGUUUG [Fam1A.1 aminoacylation ribozyme variant]
answer_label: not fulfilled

record_sequence: CCACACUUCAAGAAAUCGGUG [Fam1B.1 aminoacylation ribozyme variant]
answer_label: fulfilled

record_sequence: AUUCACCUAGGUGAUCGGGUA [Fam2.2 aminoacylation ribozyme variant]
answer_label: fulfilled

record_sequence: AAGUUUUCUACUAGUCGCAAG [Fam3.1 aminoacylation ribozyme variant]
answer_label: not fulfilled

record_sequence: AUUCACCUAGGUCAUACGGUG [Fam2.2 aminoacylation ribozyme variant]
answer_label: fulfilled

record_sequence: AGUACGCUGGUCAUCGAGUGA [Fam2.1 aminoacylation ribozyme variant]
answer_label: fulfilled

record_sequence: CAGUUUGCUAAUAGCCGCAAG [Fam3.1 aminoacylation ribozyme variant]
answer_label: not fulfilled

record_sequence: AUUCUCCUAGGUCAUCCGGUG [Fam2.2 aminoacylation ribozyme variant]
answer_label: fulfilled

record_sequence: UUUCCCCUAGGUCAUCGGGUG [Fam2.2 aminoacylation ribozyme variant]
answer_label: fulfilled

record_sequence: UCACACUUCAUGCAAUCGGUC [Fam1B.1 aminoacylation ribozyme variant]
answer_label: not fulfilled
